Data origin, for the record: patent US9988400B2

Tgt: HEK cells stably transfected with tetracycline inducible hNR1 and hNR2A (Homo sapiens, UniProt Q05586+Q12879)
Construct: expressed in transfected cells; host or cells: HEK cells, stably transfected, tetracycline/doxycycline inducible
Sequence (Q12879 23-1464, other chains not shown): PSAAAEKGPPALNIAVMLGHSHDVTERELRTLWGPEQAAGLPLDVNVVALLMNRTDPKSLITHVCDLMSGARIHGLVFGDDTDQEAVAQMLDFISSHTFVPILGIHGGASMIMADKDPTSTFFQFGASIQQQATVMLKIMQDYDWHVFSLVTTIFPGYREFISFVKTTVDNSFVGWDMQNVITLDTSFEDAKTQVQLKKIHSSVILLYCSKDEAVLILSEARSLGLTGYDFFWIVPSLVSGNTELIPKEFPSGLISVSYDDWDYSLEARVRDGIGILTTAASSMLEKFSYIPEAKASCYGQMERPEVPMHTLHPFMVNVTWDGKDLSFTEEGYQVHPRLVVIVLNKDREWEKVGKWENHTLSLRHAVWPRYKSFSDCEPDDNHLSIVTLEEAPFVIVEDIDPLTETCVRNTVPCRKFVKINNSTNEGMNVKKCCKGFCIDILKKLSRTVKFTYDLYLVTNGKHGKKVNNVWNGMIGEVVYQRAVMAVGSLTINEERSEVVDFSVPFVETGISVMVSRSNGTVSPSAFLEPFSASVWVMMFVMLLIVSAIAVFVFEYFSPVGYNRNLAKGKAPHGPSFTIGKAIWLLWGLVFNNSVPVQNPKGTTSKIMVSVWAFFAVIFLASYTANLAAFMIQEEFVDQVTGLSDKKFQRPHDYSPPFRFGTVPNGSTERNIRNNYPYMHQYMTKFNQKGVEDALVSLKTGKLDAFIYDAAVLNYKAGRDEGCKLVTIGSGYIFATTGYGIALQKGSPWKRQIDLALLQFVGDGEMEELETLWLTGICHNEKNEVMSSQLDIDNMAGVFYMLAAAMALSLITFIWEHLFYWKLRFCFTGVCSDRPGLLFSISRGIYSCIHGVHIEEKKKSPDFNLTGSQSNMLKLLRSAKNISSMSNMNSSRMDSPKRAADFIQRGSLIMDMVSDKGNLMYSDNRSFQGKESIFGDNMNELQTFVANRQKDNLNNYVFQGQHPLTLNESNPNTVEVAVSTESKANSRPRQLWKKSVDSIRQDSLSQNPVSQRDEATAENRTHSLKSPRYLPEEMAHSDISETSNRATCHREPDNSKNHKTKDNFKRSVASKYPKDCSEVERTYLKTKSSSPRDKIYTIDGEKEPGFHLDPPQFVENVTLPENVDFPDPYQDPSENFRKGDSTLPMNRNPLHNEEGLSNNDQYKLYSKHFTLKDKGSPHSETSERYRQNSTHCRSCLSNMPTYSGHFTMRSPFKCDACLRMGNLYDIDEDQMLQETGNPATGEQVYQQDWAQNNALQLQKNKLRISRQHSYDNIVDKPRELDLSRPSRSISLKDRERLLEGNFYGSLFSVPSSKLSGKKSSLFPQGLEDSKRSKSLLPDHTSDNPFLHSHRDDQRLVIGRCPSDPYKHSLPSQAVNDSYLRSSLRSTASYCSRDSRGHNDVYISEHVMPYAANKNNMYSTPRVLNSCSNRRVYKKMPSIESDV
Assay Procedure: Assay 1: Cell-Based Assay, cytosolic calcium response to positive allosteric modulators (with 30 μM glycine and 300 nM L-glutamate, EC30)
Settings: Table 3; cytosolic calcium response, with 30 μM glycine and 300 nM L-glutamate (EC30); — = no plateau was reached
pEC50: −log10 of the molar value.
Entries and their measured pEC50 follow.

Molecule	pEC50
N#CC1CC1c1c(Cl)sc2nc(Cn3nc(C(F)(F)F)cc3Cl)cc(=O)n12 (single isomer, unassigned) [compound 266]	7.60
Cc1sc2nc(CN(C)c3ccc(Cl)cn3)cc(=O)n2c1C1CC1C#N (stereo not drawn)	6.11
Cc1sc2nc(Oc3cccc(C(F)(F)F)c3F)cc(=O)n2c1C1CC1C#N (stereo not drawn)	5.43
CCNC(=O)c1c(C)sc2nc(Cn3nc(C)cc3Cl)cc(=O)n12	4.99
O=c1cc(Cn2nc(Cl)cc2C(F)(F)F)nc2scc(Br)n12	5.85
Cc1sc2nc(Cn3nc(C(F)(F)F)cc3Cl)cc(=O)n2c1-c1cncc(F)c1	6.11
O=c1cc(Cn2nc(C(F)(F)F)cc2Cl)nc2sc(C(F)(F)F)c(N3CCC3)n12	5.14
Cc1sc2nc(Cn3nc(Cl)cc3C(F)(F)F)cc(=O)n2c1C(C)O (stereo not drawn)	5.22
Cc1sc2nc(Cn3nc(C(F)(F)F)cc3Cl)cc(=O)n2c1Cl	6.70
CCNC(=O)c1c(C)sc2nc(Cn3nc(C(F)(F)F)cc3Cl)cc(=O)n12	6.41
Cc1sc2nc(Cn3nc(C(F)(F)F)cc3Cl)cc(=O)n2c1C1CC1CO (stereo not drawn) [compound 102]	7.26
CCNC(=O)c1c(C)sc2nc(Oc3cccc(C(F)(F)F)c3F)cc(=O)n12	5.12
O=c1cc(Cn2nc(C(F)(F)F)cc2Cl)nc2sc(C(F)(F)F)c(N3CC(F)(F)C3)n12	4.21
N#CC1CC1c1c(C(F)(F)F)sc2nc(Cn3nc(Cl)cc3C(F)(F)F)cc(=O)n12 (stereo not drawn)	6.88
CCNC(=O)c1c(C)sc2nc(Cc3cccc(C4(O)CC4)c3F)cc(=O)n12	5.19
CNC(=O)c1c(C)sc2nc(Cc3cc(C(F)(F)F)ccc3Cl)cc(=O)n12	5.81
C=C(C)c1c(C)sc2nc(Cn3nc(C(F)(F)F)cc3Cl)cc(=O)n12	6.40
N#CC1CC1c1c(C(F)(F)F)sc2nc(Cn3nc(C(F)(F)F)cc3Cl)c(F)c(=O)n12 (single isomer, unassigned) [compound 277]	6.81
CCNC(=O)c1c(Cl)sc2nc(Cc3cccc(C#N)c3F)cc(=O)n12	4.95
Cc1sc2nc(Cn3nc(Cl)cc3C(F)(F)F)cc(=O)n2c1-c1ncco1	5.12
CC(=O)c1c(C)sc2nc(Cn3nc(C(F)(F)F)cc3Cl)cc(=O)n12	6.49
